Recorded values, source ChEMBL document CHEMBL4428043.

Listed here are compounds together with their documented IC50.
assay: Inhibition of helicase activity of BK polyomavirus LTAg (E265 to D629 residues) expressed in Escherichia coli using Cy5/BHQ3 dsDNA pre-incubated for 20 mins and measured after 120 to 180 mins by fluorescence based assay; design: species or system Betapolyomavirus hominis
Supply the numeric figure in µM, leaving out any unit text.

Here are 4 compounds together with their reported answers.
c1ccc(-c2nn3cnnc3s2)c(OCCN2CCOCC2)c1 | 73
CC(=O)Nc1ccc(Oc2ccccc2-c2nc3ccncc3s2)cc1 | 1.6
c1cc2c(c(-c3nc4ccncc4s3)c1)OCC2 | 15
N#CCCCOc1ccccc1-c1nn2cnnc2s1 | 42

Here's the next entry for you.
Prompt line: Given the compound `c1ccc(-c2nc3ccncc3s2)c(OCCC2CCOCC2)c1` , what is its reported IC50?
Response line: 11

----------
assay: Cytotoxicity against […] G144 […] cells; format: cell-based
OBSERVED_PROPERTY: CC50

These solved cases illustrate the format of a correct answer.
c1cc2c(c(-c3nc4ccncc4s3)c1)OCC2 | > 50 µM
CCOc1ccccc1-c1nn2cnnc2s1 | > 65 µM
c1cc2c(c(-c3nn4cnnc4s3)c1)OCC2 | > 50 µM

Prompt line: I would be grateful if you could share the reported CC50 for `c1ccc(Oc2ncccc2-c2nc3ccncc3s2)cc1` .
Response line: > 50 µM

Prompt line: Would you kindly repeat that for `CC(=O)Nc1ccc(Oc2ccccc2-c2nc3ccncc3s2)cc1` ?
Response line: > 50 µM

Prompt line: Repeat with `COc1ccccc1-c1nc2ccncc2s1`
Response line: > 50 µM

Prompt line: What would you report for `COc1ccccc1-c1nn2cnnc2s1` ?
Response line: > 80 µM

----------
Molecular target: UniProtKB P03072
Sequence (P03072 whole entry): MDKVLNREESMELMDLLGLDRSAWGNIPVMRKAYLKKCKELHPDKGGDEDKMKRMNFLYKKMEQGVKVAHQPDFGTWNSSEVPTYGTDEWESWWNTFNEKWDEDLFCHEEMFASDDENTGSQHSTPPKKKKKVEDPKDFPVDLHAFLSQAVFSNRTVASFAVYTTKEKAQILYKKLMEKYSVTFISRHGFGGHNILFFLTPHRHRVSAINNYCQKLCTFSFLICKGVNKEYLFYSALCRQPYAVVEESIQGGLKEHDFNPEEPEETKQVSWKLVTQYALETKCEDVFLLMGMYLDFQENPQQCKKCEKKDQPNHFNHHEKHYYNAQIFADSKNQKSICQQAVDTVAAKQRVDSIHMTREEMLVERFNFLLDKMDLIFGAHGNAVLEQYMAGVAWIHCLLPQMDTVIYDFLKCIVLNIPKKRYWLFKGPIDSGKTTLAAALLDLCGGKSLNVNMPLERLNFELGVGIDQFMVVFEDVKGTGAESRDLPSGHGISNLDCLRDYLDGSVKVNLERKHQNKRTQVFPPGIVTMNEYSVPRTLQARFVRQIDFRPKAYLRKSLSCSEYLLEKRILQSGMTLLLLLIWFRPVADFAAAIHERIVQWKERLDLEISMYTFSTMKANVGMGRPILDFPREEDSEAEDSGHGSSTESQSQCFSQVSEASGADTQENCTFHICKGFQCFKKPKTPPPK
Reported IC50 values follow for various compounds
The reply should contain only the number, in µM.

Here is how some compounds turned out for IC50.
c1ccc(Oc2ncccc2-c2nc3ccncc3s2)cc1 | 1.4
CCOc1ccccc1-c1nc2ccncc2s1 | 9.1
c1cc2c(c(-c3nc4ccncc4s3)c1)OCC2 | 8.7

// moving on: another record for IC50
Prompt line: Lab note: need IC50 with UniProtKB P03072 for entry `COc1ccccc1-c1nc2ccncc2s1` , please look it up.
Response line: 5
